- TESTED ON: TRPV1 (Rattus norvegicus, UniProt O35433)
- Construct: using cultured rat dorsal root ganglion cells which express TRPV1 abundantly; endogenous in cells; host or cells: primary culture of dorsal root ganglion cells from 7 day old Wistar rat
- Sequence (O35433 whole entry): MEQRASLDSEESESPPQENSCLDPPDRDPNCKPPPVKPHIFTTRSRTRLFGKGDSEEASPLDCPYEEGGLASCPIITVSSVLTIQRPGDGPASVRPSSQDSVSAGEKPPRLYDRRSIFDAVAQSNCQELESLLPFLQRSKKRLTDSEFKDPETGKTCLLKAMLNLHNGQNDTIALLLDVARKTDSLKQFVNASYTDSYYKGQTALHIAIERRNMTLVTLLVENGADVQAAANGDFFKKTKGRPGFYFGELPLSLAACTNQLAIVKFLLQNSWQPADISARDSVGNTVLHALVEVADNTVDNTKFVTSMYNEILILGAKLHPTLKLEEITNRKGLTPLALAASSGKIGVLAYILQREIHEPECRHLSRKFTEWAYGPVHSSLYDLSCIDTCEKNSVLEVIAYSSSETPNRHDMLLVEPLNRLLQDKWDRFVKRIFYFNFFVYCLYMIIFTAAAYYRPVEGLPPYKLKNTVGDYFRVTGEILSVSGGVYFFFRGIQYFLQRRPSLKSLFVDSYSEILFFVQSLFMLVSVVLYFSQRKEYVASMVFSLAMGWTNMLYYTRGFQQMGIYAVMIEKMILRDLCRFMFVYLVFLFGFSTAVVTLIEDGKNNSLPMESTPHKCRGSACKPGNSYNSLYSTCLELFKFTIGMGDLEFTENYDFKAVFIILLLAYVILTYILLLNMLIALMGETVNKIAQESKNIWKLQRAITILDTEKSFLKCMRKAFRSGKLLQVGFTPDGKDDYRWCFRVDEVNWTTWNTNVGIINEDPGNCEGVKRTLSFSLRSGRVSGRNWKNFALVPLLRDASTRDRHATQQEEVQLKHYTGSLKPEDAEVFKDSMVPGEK
- TEST PROTOCOL: TRPV1 agonist activity by intracellular calcium level (FLIPR method)
- Assay type: cell-based
- PROTOCOL CONDITIONS: read-out: Value (%) when fluorescence intensity for capsaicin (1 μM) is 100%, 1 μM; rat dorsal root ganglion primary culture cells
- Description: The test is to measure the elevation of intracellular calcium level as the indicator of TRPV1 agonist activity of a test compound using cultured rat dorsal root ganglion cells which express TRPV1 abundantly, and carried out in accordance with the method of Jerman et al. (Jerman, J. C. et al., Comparison of effects of anandamide at recombinant and endogenous rat vanilloid receptors. Br J Anaesth, 2002. 89(6): p. 882-7). […]
PROPERTY MEASURED: Emax at 1 µM

Recorded results for 5 compounds are shown here.
1) COc1cc(CNC(=O)C2CCN(C(=O)O[C@H]3CCCC[C@H]3C)CC2)ccc1O
97%
2) COc1cc(CNC(=O)C2CCN(C(=O)O[C@@H]3CCCC[C@@H]3C)CC2)ccc1O
94%
3) COc1cc(CNC(=O)C2CN(C(=O)O[C@H]3CC[C@@H](C(C)(C)C)CC3)C2)ccc1O
84%
4) COc1cc(CNC(=O)C2CN(C(=O)O[C@H]3CC[C@H](C(C)(C)C)CC3)C2)ccc1O
82%
5) CC[C@H]1CC[C@@H](OC(=O)N2CCC(C(=O)NCc3ccc(O)c(OC)c3)CC2)CC1
87%

Report Emax at 1 µM for every entry below.
1. CC[C@H]1CC[C@H](OC(=O)N2CCC(C(=O)NCc3ccc(O)c(OC)c3)CC2)CC1
2. COc1cc(CNC(=O)C2CCN(C(=O)O[C@H]3CCCC[C@@H]3C)CC2)ccc1O (relative stereo)

Reply:
["84%", "85%"]

Data origin, for the record: patent US8367835B2
